melting point values for the compounds below.

These solved cases illustrate the format of a correct answer.
[
  {
    "COMPOUND": "Cc1ccc(-n2c(SCC(=O)NN)nnc2-c2ccccc2)cc1",
    "OBSERVATION TYPE": "melting point",
    "OBSERVED RESULT": "90 to 92 °C"
  },
  {
    "COMPOUND": "O=C(O)c1cccc2c1CCCN2",
    "OBSERVATION TYPE": "melting point",
    "OBSERVED RESULT": "142 to 144 °C"
  },
  {
    "COMPOUND": "N#CCC(=O)NCc1ccco1",
    "OBSERVATION TYPE": "melting point",
    "OBSERVED RESULT": "93 to 95 °C"
  },
  {
    "COMPOUND": "C=CCn1c(S)nnc1C1CCS(=O)(=O)C1 (stereo not drawn)",
    "OBSERVATION TYPE": "melting point",
    "OBSERVED RESULT": "101 to 103 °C"
  },
  {
    "COMPOUND": "COc1cc(C=O)ccc1OC(=O)OC(C)(C)C",
    "OBSERVATION TYPE": "melting point",
    "OBSERVED RESULT": "89 to 91 °C"
  }
]

Supply recorded melting point for "CS(=O)(=O)Nc1cc(F)ccc1C(=O)O" here. 205 to 207 °C

Give melting point for the following compound: Cc1c(C(=O)O)cnn1C1CCS(=O)(=O)C1 (stereo not drawn) 249 to 251 °C

Report melting point, nothing else, for this compound: CC1Cc2cc(S(=O)(=O)Cl)ccc2O1 (stereo not drawn) 73 to 75 °C

Supply reported melting point belonging to this compound: "O=C(O)c1n[nH]c2ccc(Cl)cc12" 271 to 273 °C

Please indicate melting point recorded for "NC(=O)NCCc1cccnc1" 152 to 154 °C

Determine from records and report melting point for "O=S(=O)(Nc1ccc2cn[nH]c2c1)c1ccc2c(c1)CCC2" 168 to 170 °C

Give the reported value of melting point for this record: CS(=O)(=O)CCC(Cc1cccc(Br)c1)C(=O)O (stereo not drawn) 61 to 63 °C

Recall and state the measured melting point for "Fc1ccc(NC(=NC2CC2)c2ccccc2)cc1" . 92 to 94 °C

Give reported melting point value for "CNC(=O)c1cc(Oc2cccc(O)c2C)ccn1" 179 to 181 °C

Supply recorded melting point for "O=C(O)c1c[nH]c2ccc([N+](=O)[O-])cc12" here. 255 to 257 °C

Report melting point for "CC(C)Oc1ccc(S(=O)(=O)Cl)cc1Cl" 95 to 97 °C

###

Each entry below lists one item and its recorded melting point value.

Sample answers from the record:
[
  {
    "COMPOUND": "CC(C)(C)OC(=O)Nc1cccc(C#N)c1",
    "melting point": "127 to 129 °C"
  },
  {
    "COMPOUND": "O=C(O)C(c1ccccc1)N1CCS(=O)(=O)CC1 (stereo unspecified)",
    "melting point": "165 to 167 °C"
  },
  {
    "COMPOUND": "N#Cc1ccc(Oc2ccc(N)cc2)cc1",
    "melting point": "110 to 112 °C"
  },
  {
    "COMPOUND": "COc1ccc(NS(=O)(=O)c2cccs2)cc1",
    "melting point": "120 to 122 °C"
  },
  {
    "COMPOUND": "CCCCCn1nc(C(=O)O)c2ccccc2c1=O",
    "melting point": "144 to 146 °C"
  }
]

Input "O=C(O)c1cc(-c2ccc(Cl)s2)nc2ccccc12" , output reported melting point. 242 to 244 °C

Return the recorded melting point value; entry: "COc1nc(Cl)nc(N2CCCCCC2)n1" 114 to 116 °C

###

OBSERVATION TYPE: melting point

Field: example entries. Status: answers known.
[
  {
    "TEST SMILES": "Cc1cccc(COc2ccccc2C(=O)O)c1",
    "melting point": "155 to 157 °C"
  },
  {
    "TEST SMILES": "Fc1cc(F)cc(-c2n[nH]c(S)n2)c1",
    "melting point": "279 to 281 °C"
  },
  {
    "TEST SMILES": "NS(=O)(=O)c1ccc(Br)cn1",
    "melting point": "170 to 172 °C"
  },
  {
    "TEST SMILES": "O=C(O)c1cccc(S(=O)(=O)Nc2ccc(F)cc2)c1",
    "melting point": "140 to 142 °C"
  },
  {
    "TEST SMILES": "Cc1cc(C)cc(-c2nnc(S)o2)c1",
    "melting point": "240 to 242 °C"
  }
]

Here's the next entry for you.
Specify melting point for "O=C(O)c1ccc2c(c1)COC2" and stop. 164 to 166 °C

###

melting point by entry:

Worked set:
[
  {
    "COMPOUND": "O=C1NC(=O)C(Cc2ccc(O)cc2)N1 (configuration not stated)",
    "OBSERVATION TYPE": "melting point",
    "OBSERVED RESULT": "267 to 269 °C"
  },
  {
    "COMPOUND": "O=Cc1cnn(-c2cccc(Cl)c2)n1",
    "OBSERVATION TYPE": "melting point",
    "OBSERVED RESULT": "84 to 86 °C"
  },
  {
    "COMPOUND": "CC(C)(C)c1ccc(C2(CN)CCCC2)cc1",
    "OBSERVATION TYPE": "melting point",
    "OBSERVED RESULT": "62 to 64 °C"
  },
  {
    "COMPOUND": "O=C1CC(c2ccc(Cl)cc2)N1 (configuration not stated)",
    "OBSERVATION TYPE": "melting point",
    "OBSERVED RESULT": "90 to 92 °C"
  },
  {
    "COMPOUND": "Fc1ccc(-n2ncc3c(Cl)ncnc32)cc1",
    "OBSERVATION TYPE": "melting point",
    "OBSERVED RESULT": "154 to 156 °C"
  },
  {
    "COMPOUND": "BrCCOc1ccc(Oc2ccccc2)cc1",
    "OBSERVATION TYPE": "melting point",
    "OBSERVED RESULT": "35 to 37 °C"
  }
]

Quote melting point reported for "CC(C)=CC(=O)Nc1scc(-c2ccccc2)c1C(=O)O" please. 202 to 204 °C

###

OBSERVATION TYPE: melting point

Look over these answered cases.
[
  {
    "TEST SMILES": "CC(C)(C)C(=O)Nc1cccc(C(=O)O)c1",
    "OBSERVATION TYPE": "melting point",
    "OBSERVED RESULT": "211 to 213 °C"
  },
  {
    "TEST SMILES": "CNc1cccc2ncccc12",
    "OBSERVATION TYPE": "melting point",
    "OBSERVED RESULT": "125 to 127 °C"
  },
  {
    "TEST SMILES": "CC(=O)Oc1ccc(-c2ccc(C(=O)O)cc2)cc1",
    "OBSERVATION TYPE": "melting point",
    "OBSERVED RESULT": "275 to 277 °C"
  }
]

Kindly indicate its recorded melting point. Item: "COc1ccc(-c2nn(-c3ccccc3)cc2CCl)cc1" 89 to 91 °C

// fetch melting point given entry "C=CC(=O)NC(N)=O" 169 to 171 °C

###

OBSERVATION TYPE: melting point

[
  {
    "COMPOUND": "O=C(O)CCCN1C(=O)c2ccccc2C1=O",
    "melting point": "96 to 98 °C"
  }
]

Identify measured melting point corresponding to CC(NS(=O)(=O)c1ccc(N)cc1)C1CC2CCC1C2 (stereo not drawn) 202 to 204 °C

###

OBSERVATION TYPE: melting point

Here is how some compounds turned out for melting point.
[
  {
    "COMPOUND": "O=C(Nc1ccccc1F)C1CSCN1 (stereo not drawn)",
    "melting point": "97 to 99 °C"
  },
  {
    "COMPOUND": "CS(=O)(=O)c1cccc(Cl)c1C(N)=O",
    "melting point": "200 to 202 °C"
  },
  {
    "COMPOUND": "CC(=O)c1cc2c(cc1O)OCO2",
    "melting point": "114 to 116 °C"
  },
  {
    "COMPOUND": "CC(=O)c1ccc(OCC(=O)N2CCCC2)cc1",
    "melting point": "122 to 124 °C"
  }
]

# return recorded melting point for input "O=C(O)C=CC1CCOCC1" 134 to 136 °C

Please look at this compound and report its melting point: "Cn1cc(S(=O)(=O)Cl)c([N+](=O)[O-])n1" 70 to 72 °C

Identify the reported melting point for the following entry. CC(C(=O)O)N(C)C(=O)OCC1c2ccccc2-c2ccccc21 (stereo not drawn) 119 to 121 °C

# return recorded melting point for entry "COC(=O)CNS(=O)(=O)c1ccc(N)cc1" 78 to 80 °C

Supply measured melting point of "O=C(O)Cc1csc(-c2cccc(F)c2)n1" in your reply. 124 to 126 °C

Find the measured melting point of "Cc1nc(C(=O)O)c[nH]1" and report it. 239 to 241 °C
